B1: TPR 5TU (parent)
chain: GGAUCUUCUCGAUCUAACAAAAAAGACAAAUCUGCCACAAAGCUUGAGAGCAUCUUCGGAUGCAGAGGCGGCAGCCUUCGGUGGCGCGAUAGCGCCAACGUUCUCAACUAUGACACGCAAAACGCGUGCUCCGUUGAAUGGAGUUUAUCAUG

Variants of: B1
Assay: polymerase ribozyme fitness, log enrichment relative to wild type (log ratio); higher = more active; in vitro selection for triplet polymerase activity
This sample holds only a part of the variants without activity.
measured-metric: polymerase ribozyme fitness (log ratio)
A bare number is all that is needed in reply.

Study these solved cases before continuing.
>>> val("A52G")
-0.491
>>> val("A29U C95A")
-3.68
>>> val("U55A A89C A119C")
-0.892

Pending variant:
Form: variant = G84A A121C U127G ; polymerase ribozyme fitness (log ratio) = -2.56
